- TESTED ON: Amine oxidase [flavin-containing] B (Homo sapiens, UniProt P27338)
- Sequence (P27338 whole entry): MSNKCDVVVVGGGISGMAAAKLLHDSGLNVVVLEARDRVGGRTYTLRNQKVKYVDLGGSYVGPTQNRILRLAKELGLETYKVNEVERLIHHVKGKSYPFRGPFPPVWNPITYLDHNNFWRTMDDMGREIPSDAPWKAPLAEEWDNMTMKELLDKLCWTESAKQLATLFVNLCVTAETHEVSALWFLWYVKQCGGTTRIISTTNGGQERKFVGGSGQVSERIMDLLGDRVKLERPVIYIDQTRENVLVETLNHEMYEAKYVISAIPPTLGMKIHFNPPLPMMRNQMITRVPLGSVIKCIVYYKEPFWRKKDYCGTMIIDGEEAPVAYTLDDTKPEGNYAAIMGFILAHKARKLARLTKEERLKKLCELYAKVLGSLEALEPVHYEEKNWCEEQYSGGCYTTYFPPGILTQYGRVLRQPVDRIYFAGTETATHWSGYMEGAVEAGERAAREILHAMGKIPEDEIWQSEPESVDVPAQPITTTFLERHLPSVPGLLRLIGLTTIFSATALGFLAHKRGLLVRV
- PROCEDURE DETAILS: Inhibition of human recombinant MAO-B expressed in baculovirus infected insect cells using kynuramine as substrate after 20 mins by horseradish peroxidase-coupled assay
pIC50: −log10 of the molar value.
The threshold is inclusive: pIC50 of exactly 6 counts as Met; values below receive Not met.

// below: answered compounds
Cn1c(=O)c2c(nc(CCSc3ccc(Cl)cc3)n2C)n(C)c1=O
Not met
COc1cccc(OCc2nc3c(c(=O)n(C)c(=O)n3C)n2C)c1
Not met
Cn1c(=O)c2c(nc(CCSc3ccccc3)n2C)n(C)c1=O
Not met

Does pIC50 meet or surpass 6 for Cn1c(=O)c2c(nc(CCSc3cccc(Cl)c3)n2C)n(C)c1=O ?
Not met

Does pIC50 meet or surpass 6 for Cn1c(=O)c2c(nc(COc3ccccc3)n2C)n(C)c1=O ?
Not met

Does pIC50 meet or surpass 6 for Cn1c(=O)c2c(nc(COc3cccc(C(F)(F)F)c3)n2C)n(C)c1=O ?
Met

Does pIC50 meet or surpass 6 for Cn1c(=O)c2c(nc(COc3ccc(Br)cc3)n2C)n(C)c1=O ?
Met

Does pIC50 meet or surpass 6 for Cn1c(=O)c2c(nc(CCSc3cccc(Br)c3)n2C)n(C)c1=O ?
Not met

Does pIC50 meet or surpass 6 for Cn1c(=O)c2c(nc(COc3cccc(Cl)c3)n2C)n(C)c1=O ?
Met

Does pIC50 meet or surpass 6 for Cn1c(=O)c2c(nc(CCSc3ccc(Br)cc3)n2C)n(C)c1=O ?
Not met
